target.system: EGFR WT (wild type EGFR) (Homo sapiens (Human), UniProt P00533)
Sequence (P00533 25-1210): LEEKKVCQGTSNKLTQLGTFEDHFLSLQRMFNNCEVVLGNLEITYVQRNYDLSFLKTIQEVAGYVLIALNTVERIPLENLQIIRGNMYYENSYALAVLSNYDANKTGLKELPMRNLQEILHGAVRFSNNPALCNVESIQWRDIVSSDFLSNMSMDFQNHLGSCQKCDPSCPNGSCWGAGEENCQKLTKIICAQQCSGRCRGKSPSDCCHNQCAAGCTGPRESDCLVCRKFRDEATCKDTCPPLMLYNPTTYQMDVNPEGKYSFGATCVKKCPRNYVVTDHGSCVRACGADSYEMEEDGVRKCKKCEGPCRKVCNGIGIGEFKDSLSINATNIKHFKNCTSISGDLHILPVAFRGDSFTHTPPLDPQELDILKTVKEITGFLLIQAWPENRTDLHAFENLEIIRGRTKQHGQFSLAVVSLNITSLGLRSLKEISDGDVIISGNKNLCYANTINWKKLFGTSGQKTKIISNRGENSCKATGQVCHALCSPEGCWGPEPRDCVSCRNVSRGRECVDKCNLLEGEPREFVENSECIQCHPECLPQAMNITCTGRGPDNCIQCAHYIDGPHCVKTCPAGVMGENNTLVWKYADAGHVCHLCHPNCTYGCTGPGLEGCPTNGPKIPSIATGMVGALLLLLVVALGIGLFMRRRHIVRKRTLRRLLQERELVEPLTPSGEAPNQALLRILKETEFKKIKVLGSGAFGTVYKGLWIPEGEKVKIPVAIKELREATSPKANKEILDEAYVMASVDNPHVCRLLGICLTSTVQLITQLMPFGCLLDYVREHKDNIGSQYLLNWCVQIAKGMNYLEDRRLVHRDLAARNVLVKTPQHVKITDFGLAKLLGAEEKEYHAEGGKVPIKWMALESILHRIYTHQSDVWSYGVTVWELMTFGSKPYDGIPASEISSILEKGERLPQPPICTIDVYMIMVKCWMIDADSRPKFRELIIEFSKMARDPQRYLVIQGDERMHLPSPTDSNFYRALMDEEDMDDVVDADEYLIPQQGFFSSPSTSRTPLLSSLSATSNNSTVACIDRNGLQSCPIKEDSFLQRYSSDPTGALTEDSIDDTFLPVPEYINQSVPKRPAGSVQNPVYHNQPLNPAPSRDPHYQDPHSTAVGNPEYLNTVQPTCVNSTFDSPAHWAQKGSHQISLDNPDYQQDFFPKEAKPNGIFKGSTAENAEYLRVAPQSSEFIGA
protocol: In vitro enzymatic TR-FRET (HTRF KinEASE-TK) kinase assay, EGFR WT
Assay type: biochemical
condition.set: kinase activity, TR-FRET; read-out: EGFR (WT) IC50
pIC50: −log10 of the molar value.
parameter: pIC50

Study these solved cases before continuing.
{"compound": "COc1cc2c(cc1Nc1ncc(Br)c(Nc3ccc4nccnc4c3P(C)(C)=O)n1)-c1cnn(C)c1CN(C)C2=O [Compound 9]", "target.system": "EGFR WT (wild type EGFR) (Homo sapiens (Human), UniProt P00533)", "parameter": "pIC50", "result": "7.30 to 8.00"}
{"compound": "COc1cc2c(cc1Nc1ncc(C)c(Nc3ccccc3P(C)(C)=O)n1)-c1cnn(C)c1CCN2C(C)C [Compound 94]", "target.system": "EGFR WT (wild type EGFR) (Homo sapiens (Human), UniProt P00533)", "parameter": "pIC50", "result": "8.00 to 9.00"}
{"compound": "COc1cc2c(cc1Nc1nc(Nc3ccc4nccnc4c3P(C)(C)=O)c3cc[nH]c3n1)-c1cnn(C)c1CCN2C [Compound 60]", "target.system": "EGFR WT (wild type EGFR) (Homo sapiens (Human), UniProt P00533)", "parameter": "pIC50", "result": "8.00 to 9.00"}
{"compound": "COc1cc2c(cc1Nc1ncc(Br)c(Nc3ccccc3P(C)(C)=O)n1)-c1cnn(C)c1CCN2[C@@H]1CCN(C)C[C@H]1F (single isomer, unassigned) [Compound 66A]", "target.system": "EGFR WT (wild type EGFR) (Homo sapiens (Human), UniProt P00533)", "parameter": "pIC50", "result": "8.00 to 9.00"}

Record pIC50 per entry; entries follow.
1. COc1cc2c(cc1Nc1ncc(Br)c(Nc3ccc4nccnc4c3P(C)(C)=O)n1)-c1cnn(C3COC3)c1CCN2C(C)C [Compound 98]
2. CCN(c1c(Nc2nc(Nc3cc4c(cc3OC)N(C(C)C)CCc3c-4cnn3C)ncc2Br)ccc2nccnc12)S(C)(=O)=O [Compound 134]

8.00 to 9.00
7.30 to 8.00

Field: pIC50. Fill in for each record below.
1. CCN1CCc2c(cnn2C)-c2cc(Nc3ncc(Br)c(Nc4ccccc4P(C)(C)=O)n3)c(OC)cc21 [Compound 20]
2. COc1nc2c(cc1Nc1ncc(Br)c(Nc3ccccc3P(C)(C)=O)n1)-c1cnn(C)c1CCN2C [Compound 79]
3. COc1nc2c(cc1Nc1ncc(Br)c(Nc3ccc4nccnc4c3P(C)(C)=O)n1)-c1cnn(C)c1CCN2C [Compound 80]

1. 8.00 to 9.00
2. 7.30 to 8.00
3. 8.00 to 9.00

====

target.system: EGFR WT (wild type EGFR) (Homo sapiens (Human))
protocol: In vitro enzymatic TR-FRET (HTRF KinEASE-TK) kinase assay, EGFR WT
Type: biochemical
condition.set: kinase activity, TR-FRET; read-out: EGFR (WT) IC50
pIC50: −log10 of the molar value.
parameter: pIC50

Example entries and their recorded answers appear below.
{"molecule": "COc1ccc(CN2Cc3cc(OC)c(Nc4ncc(Br)c(Nc5ccc6nccnc6c5P(C)(C)=O)n4)cc3-c3cnn(C)c3C2)c(OC)c1 [Compound 57]", "target.system": "EGFR WT (wild type EGFR) (Homo sapiens (Human))", "result": "7.00 to 7.30"}
{"molecule": "COc1cc2c(cc1Nc1ncc(Br)c(Nc3ccccc3P(C)(C)=O)n1)-c1cnn(C)c1CCN2C(C)C [Compound 27]", "target.system": "EGFR WT (wild type EGFR) (Homo sapiens (Human))", "result": "8.00 to 9.00"}
{"molecule": "COc1cc2c(cc1Nc1ncc(Br)c(Nc3ccc4nccnc4c3P(C)(C)=O)n1)-c1cnn(C)c1CCN2C1CCN(C2CC(F)(F)C2)CC1 [Compound 96]", "target.system": "EGFR WT (wild type EGFR) (Homo sapiens (Human))", "result": "8.00 to 9.00"}
{"molecule": "CNC(=O)c1c(Nc2nc(Nc3cc4c(cc3OC)N(C(C)C)CCc3c-4cnn3C)ncc2Br)ccc2nccnc12 [Compound 129]", "target.system": "EGFR WT (wild type EGFR) (Homo sapiens (Human))", "result": "8.00 to 9.00"}
{"molecule": "COc1cc2c(cc1Nc1ncc(Br)c(Nc3ccc4nccnc4c3P3(=O)CCN(C)CC3)n1)-c1cnn(C)c1CCN2C(C)C [Compound 91]", "target.system": "EGFR WT (wild type EGFR) (Homo sapiens (Human))", "result": "> 9.00"}
{"molecule": "COc1cc2c(cc1Nc1ncc(Br)c(Nc3ccc4nccnc4c3NS(C)(=O)=O)n1)-c1cnn(C)c1CCN2C(C)(C)CF [Compound 120]", "target.system": "EGFR WT (wild type EGFR) (Homo sapiens (Human))", "result": "7.30 to 8.00"}
{"molecule": "COc1cc2c(cc1Nc1ncc(Br)c(Nc3ccc4nccnc4c3P(C)(C)=O)n1)-c1cnn(C)c1CCN2CC1CC1 [Compound 12]", "target.system": "EGFR WT (wild type EGFR) (Homo sapiens (Human))", "result": "8.00 to 9.00"}
{"molecule": "COc1cc2c(cc1Nc1ncc(Br)c(Nc3ccccc3P(C)(C)=O)n1)-c1cn[nH]c1CCN2C [Compound 37]", "target.system": "EGFR WT (wild type EGFR) (Homo sapiens (Human))", "result": "8.00 to 9.00"}
{"molecule": "COc1nc2c(cc1Nc1ncc(Br)c(Nc3ccc4nccnc4c3P(C)(C)=O)n1)-c1cnn(C)c1CCN2 [Compound 52]", "target.system": "EGFR WT (wild type EGFR) (Homo sapiens (Human))", "result": "8.00 to 9.00"}
{"molecule": "COc1cc2c(cc1Nc1ncc(Br)c(Nc3ccccc3P(C)(C)=O)n1)-c1cn(CCN(C)C)nc1CCN2C(C)C [Compound 56]", "target.system": "EGFR WT (wild type EGFR) (Homo sapiens (Human))", "result": "8.00 to 9.00"}

Give measured pIC50 for every item shown.
1. COc1cc2c(cc1Nc1ncc(Br)c(Nc3cccnc3P(C)(C)=O)n1)-c1cnn(C)c1CCN2C(C)C [Compound 83]
2. COc1cc2c(cc1Nc1ncc(Br)c(Nc3ccccc3P(C)(C)=O)n1)-c1cnn(C)c1CNC2 [Compound 49]

8.00 to 9.00
7.30 to 8.00

====

target.system: EGFR WT (wild type EGFR) (Homo sapiens (Human), UniProt P00533)
protocol: In vitro enzymatic TR-FRET (HTRF KinEASE-TK) kinase assay, EGFR WT
Assay type: biochemical
condition.set: kinase activity, TR-FRET; read-out: EGFR (WT) IC50
Provide the recorded IC50 for the entries that follow.

{"smiles.repr": "COc1cc2c(cc1Nc1ncc(C)c(Nc3ccc4nccnc4c3P(C)(C)=O)n1)-c1cnn(C)c1CCN2C", "IC50": "< 0.001 µM"}
{"smiles.repr": "COc1cc2c(cc1Nc1ncc(Br)c(Nc3cccc4c3NS(=O)(=O)C4)n1)-c1cnn(C)c1CCN2C(C)C", "IC50": "0.01 to 0.05 µM"}

Give one value of IC50 per listed compound.
1. COc1cc2c(cc1Nc1ncc(Br)c(Nc3ccc4nccnc4c3P(C)(C)=O)n1)-c1cn(C)nc1CCN2C
2. COc1cc2c(cc1Nc1nccc(Nc3ccccc3P(C)(C)=O)n1)-c1cnn(C)c1CCN2C(C)C

["0.001 to 0.01 µM", "0.01 to 0.05 µM"]
